# STUDY_SYSTEM: Endoplasmin (Canis lupus familiaris)
# Sequence (P41148 whole entry): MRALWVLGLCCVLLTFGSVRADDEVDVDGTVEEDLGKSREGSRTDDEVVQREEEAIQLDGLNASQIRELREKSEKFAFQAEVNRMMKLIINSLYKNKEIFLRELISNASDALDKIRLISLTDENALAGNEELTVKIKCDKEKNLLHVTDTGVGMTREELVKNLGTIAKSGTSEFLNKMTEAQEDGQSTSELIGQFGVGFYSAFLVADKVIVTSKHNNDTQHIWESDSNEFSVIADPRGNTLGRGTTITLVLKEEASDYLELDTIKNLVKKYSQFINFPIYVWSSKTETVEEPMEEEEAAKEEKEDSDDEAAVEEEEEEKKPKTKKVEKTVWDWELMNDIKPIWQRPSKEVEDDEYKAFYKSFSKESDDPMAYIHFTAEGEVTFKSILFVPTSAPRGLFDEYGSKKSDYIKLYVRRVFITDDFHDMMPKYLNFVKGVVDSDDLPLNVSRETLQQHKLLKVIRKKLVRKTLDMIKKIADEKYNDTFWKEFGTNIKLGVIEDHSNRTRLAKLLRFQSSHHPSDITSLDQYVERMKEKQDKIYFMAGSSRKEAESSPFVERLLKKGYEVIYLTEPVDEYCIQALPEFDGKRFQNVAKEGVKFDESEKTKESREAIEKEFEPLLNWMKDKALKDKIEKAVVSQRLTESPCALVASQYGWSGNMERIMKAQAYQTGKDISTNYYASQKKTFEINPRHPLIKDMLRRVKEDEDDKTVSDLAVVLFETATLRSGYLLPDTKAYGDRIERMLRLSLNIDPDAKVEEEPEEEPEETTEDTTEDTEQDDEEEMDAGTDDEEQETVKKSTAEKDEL
# TEST_SUMMARY: Displacement of FITC-GDA from recombinant canine Grp94 expressed in baculovirus infected Sf21 insect cells after 24 hrs by fluorescence polarization assay
# PROTOCOL_CONDITIONS: read-out: Kd(app)
PARAMETER_MEASURED: pKd
Scale note: pKd = -log10(concentration in M).

Known results for molecules:
SUBSTANCE_SMILES: O=C(c1cc(Cc2ccccc2)c(O)cc1O)N1Cc2ccccc2C1
PARAMETER_MEASURED: pKd
REPORTED: 7.82
--
SUBSTANCE_SMILES: Cc1ccc(Sc2cc(C(=O)N3Cc4ccccc4C3)c(O)cc2O)cc1C
PARAMETER_MEASURED: pKd
REPORTED: 7.68
--
SUBSTANCE_SMILES: Cc1ccc(C)c(Sc2cc(C(=O)N3Cc4ccccc4C3)c(O)cc2O)c1
PARAMETER_MEASURED: pKd
REPORTED: 7.54
--
SUBSTANCE_SMILES: O=C(c1cc(Sc2ccccc2O)c(O)cc1O)N1Cc2ccccc2C1
PARAMETER_MEASURED: pKd
REPORTED: 7.54
--
SUBSTANCE_SMILES: O=C(c1cc(N2CCc3ccccc32)c(O)cc1O)N1Cc2ccccc2C1
PARAMETER_MEASURED: pKd
REPORTED: 5.00

The molecule listed as "COc1cccc(Sc2cc(C(=O)N3Cc4ccccc4C3)c(O)cc2O)c1" has a reported pKd of 7.47

The molecule listed as "CCOC(=O)c1cc(C(=O)N2Cc3ccccc3C2)c(O)cc1O" has a reported pKd of 6.11

The molecule listed as "O=C(c1cc(Br)c(O)cc1O)N1Cc2ccccc2C1" has a reported pKd of 7.70

The molecule listed as "O=C(c1cc(Cc2ccc(F)cc2)c(O)cc1O)N1Cc2ccccc2C1" has a reported pKd of 8.10

The molecule listed as "Cc1ccc(Cc2cc(C(=O)N3Cc4ccccc4C3)c(O)cc2O)cc1" has a reported pKd of 7.40

The molecule listed as "O=C(c1cc(Cc2ccccc2Cl)c(O)cc1O)N1Cc2ccccc2C1" has a reported pKd of 7.22

The molecule listed as "O=C(c1cc(Sc2ccc(Cl)cc2Cl)c(O)cc1O)N1Cc2ccccc2C1" has a reported pKd of 7.23

The molecule listed as "O=C(c1cc(Sc2ccccc2)c(O)cc1O)N1Cc2ccccc2C1" has a reported pKd of 7.89

The molecule listed as "O=C(c1cc(Cc2ccc(Cl)cc2)c(O)cc1O)N1Cc2ccccc2C1" has a reported pKd of 7.89

The molecule listed as "Cc1ccc(Sc2cc(C(=O)N3Cc4ccccc4C3)c(O)cc2O)c(C)c1" has a reported pKd of 7.52

The molecule listed as "O=C(c1cc(Sc2cc(Cl)cc(Cl)c2)c(O)cc1O)N1Cc2ccccc2C1" has a reported pKd of 7.51

The molecule listed as "O=C(c1cc(Sc2ccc(O)cc2)c(O)cc1O)N1Cc2ccccc2C1" has a reported pKd of 7.15

* * *

# STUDY_SYSTEM: Heat shock protein HSP 90-alpha (Homo sapiens, UniProt P07900)
PARAMETER_MEASURED: Kd (nM)
# number only, unit nM dropped from output

SUBSTANCE_SMILES: O=C(c1cc(Cc2ccccc2)c(O)cc1O)N1Cc2ccccc2C1
Kd, nM: 66

The molecule listed as "O=C(c1cc(Sc2ccc(O)cc2)c(O)cc1O)N1Cc2ccccc2C1" has a reported Kd of 52

The molecule listed as "Cc1ccc(Sc2cc(C(=O)N3Cc4ccccc4C3)c(O)cc2O)c(C)c1" has a reported Kd of 70

The molecule listed as "Cc1ccc(C)c(Sc2cc(C(=O)N3Cc4ccccc4C3)c(O)cc2O)c1" has a reported Kd of 31

The molecule listed as "O=C(c1cc(Sc2ccccc2)c(O)cc1O)N1Cc2ccccc2C1" has a reported Kd of 26

Values from ChEMBL document CHEMBL4130519
